- System under test: DNA topoisomerase 2-alpha (Homo sapiens) (UniProt P11388)
- Sequence (P11388 whole entry): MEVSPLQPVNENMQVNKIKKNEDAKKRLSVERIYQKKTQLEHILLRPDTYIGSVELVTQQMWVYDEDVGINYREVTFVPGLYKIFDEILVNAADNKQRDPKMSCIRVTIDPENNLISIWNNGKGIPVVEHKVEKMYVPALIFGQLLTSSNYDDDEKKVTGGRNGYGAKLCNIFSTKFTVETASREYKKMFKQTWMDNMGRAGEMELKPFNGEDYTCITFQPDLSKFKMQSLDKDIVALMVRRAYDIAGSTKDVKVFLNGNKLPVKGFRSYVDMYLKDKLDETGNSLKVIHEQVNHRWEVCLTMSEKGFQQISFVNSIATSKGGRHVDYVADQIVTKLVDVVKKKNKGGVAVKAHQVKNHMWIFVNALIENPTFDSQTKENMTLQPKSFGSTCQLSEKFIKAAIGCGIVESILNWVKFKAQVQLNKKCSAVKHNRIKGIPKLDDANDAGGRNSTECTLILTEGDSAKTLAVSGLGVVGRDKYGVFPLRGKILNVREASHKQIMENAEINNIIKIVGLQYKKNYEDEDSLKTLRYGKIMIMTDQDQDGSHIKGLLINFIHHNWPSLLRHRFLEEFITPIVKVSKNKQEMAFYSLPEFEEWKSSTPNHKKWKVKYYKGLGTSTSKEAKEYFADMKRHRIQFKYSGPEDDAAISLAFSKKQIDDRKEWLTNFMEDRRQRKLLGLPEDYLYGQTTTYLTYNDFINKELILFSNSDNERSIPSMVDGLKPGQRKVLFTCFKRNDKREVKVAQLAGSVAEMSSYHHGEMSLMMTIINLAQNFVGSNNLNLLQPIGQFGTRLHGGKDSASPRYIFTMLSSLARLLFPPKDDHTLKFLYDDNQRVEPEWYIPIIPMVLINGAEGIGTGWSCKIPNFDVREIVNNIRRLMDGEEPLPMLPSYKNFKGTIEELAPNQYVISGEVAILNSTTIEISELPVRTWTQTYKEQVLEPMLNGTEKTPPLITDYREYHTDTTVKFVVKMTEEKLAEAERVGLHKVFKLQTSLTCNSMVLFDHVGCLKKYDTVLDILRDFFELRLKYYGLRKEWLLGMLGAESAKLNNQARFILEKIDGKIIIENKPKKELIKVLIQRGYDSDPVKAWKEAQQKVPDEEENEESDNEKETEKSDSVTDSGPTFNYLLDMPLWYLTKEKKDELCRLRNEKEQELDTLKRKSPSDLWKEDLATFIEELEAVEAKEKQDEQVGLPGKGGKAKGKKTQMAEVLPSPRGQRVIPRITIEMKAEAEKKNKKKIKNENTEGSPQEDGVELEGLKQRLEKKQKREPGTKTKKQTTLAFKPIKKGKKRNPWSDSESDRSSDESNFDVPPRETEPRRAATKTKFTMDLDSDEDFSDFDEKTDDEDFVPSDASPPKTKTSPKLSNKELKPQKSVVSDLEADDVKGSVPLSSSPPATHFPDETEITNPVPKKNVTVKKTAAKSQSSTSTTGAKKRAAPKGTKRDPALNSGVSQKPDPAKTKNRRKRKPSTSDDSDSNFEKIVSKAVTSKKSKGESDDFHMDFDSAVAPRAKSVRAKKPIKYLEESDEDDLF
- Run description: Inhibition of human DNA topoisomerase-2alpha-mediated relaxation of supercoiled pBR322 at 20 uM after 30 mins using ethidium bromide staining by agarose gel electrophoresis
Value type: inhibition (%)

Before answering, review these 3 worked examples.
{"Compound structure": "Oc1ccc(-c2cc(-c3cccc(Cl)c3)nc(-c3cccs3)c2)cc1", "Output unit": "%", "Experimental value": 0}
{"Compound structure": "Oc1cccc(-c2cc(-c3ccncc3)nc(-c3ccc(Cl)cc3)c2)c1", "Output unit": "%", "Experimental value": 12.9}
{"Compound structure": "Oc1cccc(-c2cc(-c3ccccc3)nc(-c3cccc(Cl)c3)c2)c1", "Output unit": "%", "Experimental value": 49.1}

a = Oc1ccc(-c2cc(-c3ccc(Cl)cc3)nc(-c3ccsc3)c2)cc1
b = Oc1ccc(-c2cc(-c3cccc(Cl)c3)nc(-c3ccco3)c2)cc1
Return label of the item with the larger inhibition. Candidates: a , b . When you have decided, please share the label of that item. a

a = Oc1cccc(-c2cc(-c3ccccc3)nc(-c3ccc(Cl)cc3)c2)c1
b = Oc1ccc(-c2cc(-c3ccccc3)nc(-c3cccc(Cl)c3)c2)cc1
Min inhibition? a | b When you have decided, please share the label of that item. b
(b: 0.5%, a: 53%)

* * *

- System under test: DNA topoisomerase 2-alpha (Homo sapiens) (UniProt P11388)
- Run description: Inhibition of human DNA topoisomerase-2alpha-mediated relaxation of supercoiled pBR322 at 100 uM after 30 mins using ethidium bromide staining by agarose gel electrophoresis
Value type: inhibition (%)

{"Compound structure": "Oc1cccc(-c2cc(-c3ccc(Cl)cc3)nc(-c3ccsc3)c2)c1", "System under test": "DNA topoisomerase 2-alpha (Homo sapiens) (UniProt P11388)", "inhibition, %": 71.6}
{"Compound structure": "Oc1cccc(-c2cc(-c3ccccc3)nc(-c3cccc(Cl)c3)c2)c1", "System under test": "DNA topoisomerase 2-alpha (Homo sapiens) (UniProt P11388)", "inhibition, %": 81.1}
{"Compound structure": "Oc1cccc(-c2cc(-c3ccc(Cl)cc3)nc(-c3cccs3)c2)c1", "System under test": "DNA topoisomerase 2-alpha (Homo sapiens) (UniProt P11388)", "inhibition, %": 75.5}

P = Oc1cccc(-c2cc(-c3cccnc3)nc(-c3cccc(Cl)c3)c2)c1
Q = Oc1ccc(-c2cc(-c3ccco3)nc(-c3ccccc3Cl)c2)cc1
Min inhibition? P | Q When you have decided, please share the label of that item. P
(P: 0%, Q: 77.8%)

* * *

- System under test: UniProtKB P11387
- Sequence (whole entry): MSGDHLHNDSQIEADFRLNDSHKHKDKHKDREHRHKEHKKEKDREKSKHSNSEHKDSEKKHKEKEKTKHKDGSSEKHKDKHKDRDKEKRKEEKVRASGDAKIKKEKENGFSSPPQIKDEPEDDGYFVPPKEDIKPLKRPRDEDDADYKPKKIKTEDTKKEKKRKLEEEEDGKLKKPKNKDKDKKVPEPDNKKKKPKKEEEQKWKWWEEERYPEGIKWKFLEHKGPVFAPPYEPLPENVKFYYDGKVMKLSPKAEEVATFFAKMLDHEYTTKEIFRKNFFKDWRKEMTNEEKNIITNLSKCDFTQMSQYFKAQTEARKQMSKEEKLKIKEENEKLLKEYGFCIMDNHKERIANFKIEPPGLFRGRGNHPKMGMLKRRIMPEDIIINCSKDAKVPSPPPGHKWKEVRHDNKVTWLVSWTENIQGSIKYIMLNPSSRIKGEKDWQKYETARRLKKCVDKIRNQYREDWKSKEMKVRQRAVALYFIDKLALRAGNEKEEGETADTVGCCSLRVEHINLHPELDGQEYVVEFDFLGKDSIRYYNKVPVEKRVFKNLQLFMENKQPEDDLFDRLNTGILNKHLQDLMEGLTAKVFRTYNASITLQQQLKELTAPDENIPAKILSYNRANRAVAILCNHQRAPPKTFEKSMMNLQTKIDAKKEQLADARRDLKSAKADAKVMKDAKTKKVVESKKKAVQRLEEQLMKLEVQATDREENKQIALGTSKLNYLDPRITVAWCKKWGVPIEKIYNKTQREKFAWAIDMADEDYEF
- Run description: Inhibition of recombinant human DNA topoisomerase-1-mediated relaxation of supercoiled pBR322 at 100 uM after 30 mins using ethidium bromide staining by agarose gel electrophoresis
Value type: inhibition (%)

Before answering, review these 8 worked examples.
{"Compound structure": "Oc1ccc(-c2cc(-c3ccccc3)nc(-c3ccc(Cl)cc3)c2)cc1", "Value type": "inhibition", "Experimental value": 68}
{"Compound structure": "Oc1cccc(-c2cc(-c3ccc(Cl)cc3)nc(-c3cccs3)c2)c1", "Value type": "inhibition", "Experimental value": 15.1}
{"Compound structure": "Oc1cccc(-c2cc(-c3ccc(Cl)cc3)nc(-c3ccccn3)c2)c1", "Value type": "inhibition", "Experimental value": 30}
{"Compound structure": "Oc1cccc(-c2cc(-c3ccccc3)nc(-c3ccccc3Cl)c2)c1", "Value type": "inhibition", "Experimental value": 3.2}
{"Compound structure": "Oc1cccc(-c2cc(-c3ccncc3)nc(-c3ccccc3Cl)c2)c1", "Value type": "inhibition", "Experimental value": 0}
{"Compound structure": "Oc1ccc(-c2cc(-c3cccc(Cl)c3)nc(-c3ccccn3)c2)cc1", "Value type": "inhibition", "Experimental value": 59.4}
{"Compound structure": "Oc1ccc(-c2cc(-c3ccccn3)nc(-c3ccccc3Cl)c2)cc1", "Value type": "inhibition", "Experimental value": 5.2}
{"Compound structure": "Oc1ccc(-c2cc(-c3ccncc3)nc(-c3cccc(Cl)c3)c2)cc1", "Value type": "inhibition", "Experimental value": 29.2}

a = Oc1ccc(-c2cc(-c3ccncc3)nc(-c3ccc(Cl)cc3)c2)cc1
b = Oc1ccc(-c2cc(-c3ccsc3)nc(-c3ccccc3Cl)c2)cc1
Min inhibition? a | b When you have decided, please share the label of that item. b

* * *

- System under test: DNA topoisomerase 2-alpha (Homo sapiens) (UniProt P11388)
- Run description: Inhibition of human DNA topoisomerase-2alpha-mediated relaxation of supercoiled pBR322 at 100 uM after 30 mins using ethidium bromide staining by agarose gel electrophoresis
Value type: inhibition (%)

{"Compound structure": "Oc1ccc(-c2cc(-c3cccc(Cl)c3)nc(-c3ccco3)c2)cc1", "Output unit": "%", "Experimental value": 71.3}
{"Compound structure": "Oc1ccc(-c2cc(-c3ccccc3)nc(-c3ccc(Cl)cc3)c2)cc1", "Output unit": "%", "Experimental value": 80.9}
{"Compound structure": "Oc1cccc(-c2cc(-c3cccc(Cl)c3)nc(-c3cccs3)c2)c1", "Output unit": "%", "Experimental value": 80.4}

A = Oc1cccc(-c2cc(-c3ccco3)nc(-c3ccccc3Cl)c2)c1
B = Oc1ccc(-c2cc(-c3cccnc3)nc(-c3ccccc3Cl)c2)cc1
Min inhibition? A | B When you have decided, please share the label of that item. B
(B: 0%, A: 77.9%)

The measured values listed here are drawn from ChEMBL document CHEMBL2169746.
